The measured values listed here are drawn from PubChem BioAssay (NCI).

tested on: NCI-H322M lung; test: NCI-60 one-dose screen, 48 h (100 = growth as untreated, 0 = no growth, -100 = all killed); conditions: 10 µM unless noted
About 83,000 compounds went through this panel and 20% of them were active in at least one assay; those are over-represented in the sample as a whole.
Reported Metric: growth (%)
Dear colleague, please return just the value in %, with no unit written.

Consider the following illustrative entries.
INSERT INTO measurements (molecule, measurement) VALUES
  ('CCC(=O)C(CC(C)[N+](C)(C)C)(c1ccccc1)c1ccccc1 (configuration not stated)', 103),
  ('C[C@]12CC[C@H]3[C@@H](CC=C4c5nc(N)sc5CC[C@@]43C)[C@@H]1CC[C@@H]2O', 108),
  ('CC12CCC3C4CCC(=O)C=C4CCC3C1CC1CC(=O)OC12 (configuration not stated)', 89.9),
  ('CO[C@H]1[C@H](O[C@@H]2C[C@@H]3C/C=C/C(=O)O[C@@H](CO)C[C@H](O)[C@@H]4C[C@H](C)[C@H](C/C=C\C=C\[C@H](C)C[C@H](C2)O3)O4)O[C@@H](C)[C@H](O)[C@H]1O', 89.5);

The molecule C[C@]12CCc3sc(Nc4ccc(O)cc4)nc3C1=CC[C@@H]1[C@@H]2CC[C@]2(C)C(=O)CC[C@@H]12 on NCI-H322M lung: growth was 93.4

Form: item O=C(O)c1cc([N+](=O)[O-])cc([N+](=O)[O-])c1 ; test system NCI-H322M lung; growth: 105

Hey, NCI-H322M lung data for Oc1ccccc1C=NCCN=Cc1ccccc1O : growth came out at 97.5

====

test system: MALME-3M melanoma; experiment: NCI-60 one-dose screen, 48 h; conditions: 10 µM unless noted
About 83,000 compounds went through this panel and 20% of them were active in at least one assay; those are over-represented in the sample as a whole. Calls of active or inactive are those of the source. How the source made its calls: active means growth percent below 10; inactive means the rest.
Respond with a class label; see Yes = active, No = inactive

For orientation, consider the following solved cases.
INSERT INTO assay_data (compound, qualitative_label) VALUES
  ('CO[C@@H]([CH2][Hg][O]C(=O)c1ccccc1)[C@@H]([CH2][Hg][O]C(=O)c1ccccc1)OC', 'No'),
  ('CC(=O)c1cccc(S(=O)(=O)F)c1', 'No'),
  ('C[C@]12CCc3nc(-c4ccc(O)c(O)c4)sc3C1=CC[C@@H]1[C@@H]2CC[C@]2(C)C(=O)CC[C@@H]12', 'No'),
  ('CCCCn1c(=O)c(C(=O)NCc2ccccc2Cl)c(O)c2ccccc21', 'No'),
  ('N#CC(NC(=O)CCl)=C(Cl)Cl', 'Yes');

Please share the test call associated with Cc1ccc(S(=O)(=O)n2cc([C@@]3(O)C[C@H](CSC#N)OC3=O)c3ccccc32)cc1 .
No

Any idea what this test logged for O=[N+]([O-])c1cc(Cl)c(Cl)c([N+](=O)[O-])c1Cl ?
Yes

// param item: O=C(NC1=NCC[Se]1)c1ccccc1O ; yields the recorded call
Yes

Answer briefly: the call reported for O=C1C=C(N2CC2)c2ccccc2C1=O in this assay.
No

What call does the record list for CCCCOCCOP(=O)(OCCOCCCC)OCCOCCCC ?
No

Dear all, I need the recorded test outcome for Oc1cc(N2CC2)c(O)cc1N1CC1 , thank you.
Yes

Which result was noted for this compound in the test: Cc1cc[c-]cc1.Fc1c[c-]c(-c2ccccn2)c(F)c1.[Pt+2].c1ccc([PH+](c2ccccc2)c2ccccn2)cc1
Yes

Please indicate how the test categorized CC1=CC(=Nc2ccc(N(CCCl)CCCl)cc2)C=C(C)C1=O .
Yes

Tell me the assay call for O=C(NC(Cl)=C(Cl)Cl)P(=O)(c1ccccc1)c1ccccc1 please.
No

Outcome logged for CCN(CC)CCn1c(=O)n(C)c2ccccc21 in this assay:
No

What call does the record list for CC12CCC3C(CCC4CC(O)CCC43C)C1CCC2=O (stereo not given) ?
No

Could you kindly confirm the outcome this assay logged for COc1ccc2c(c1)C1(C)CCN(C)CC(C1)C2O (stereo not given) ?
No

Please let me know the test result on file for CC(=O)OC1CC2(O)C(CCC3(C)C(c4ccc(=O)oc4)CCC32O)C2(C)CCC(OC3OC(CO)C(O)C(O)C3O)C=C12 (stereo not given) .
Yes

I would be grateful if you could indicate the recorded call for CCOC(=O)P(=O)(OCC)OCC .
No

Record request — test call for Nc1ccc2c(c1)Cc1cc(N)ccc1-2
No

Look up the recorded call for COc1c(O)cc2c(c1OC)-c1ccc(SC)c(=O)cc1C(NC(C)=O)CC2 (stereo not given) in this test.
No

Call for entry CO/N=C1\CC[C@]2(C)[C@H]3CC[C@]4(C)C(=O)CC[C@H]4[C@@H]3C[C@@H]3SC(N)=N[C@@]32C1 :
No

====

test system: MDA-MB-435 melanoma; assay: NCI-60 one-dose screen, 48 h (100 = growth as untreated, 0 = no growth, -100 = all killed); settings: 10 µM unless noted
This is part of a sample that, as a whole, favours compounds with a hit. Of some 83,000 tested, about 20% had one in any assay.
Reported Metric: growth (%)
Give the number; % is assumed, so skip it.

INSERT INTO results (compound, system_name, reported_metric, measurement) VALUES
  ('C[C@H](O)CCC(=O)c1ccoc1', 'MDA-MB-435 melanoma', 'growth', 112),
  ('COc1c(O)cc2c(c1OC)-c1ccc(SC)c(=O)cc1C(NC(C)=O)CC2 (stereo unspecified)', 'MDA-MB-435 melanoma', 'growth', -47.2),
  ('C[C@]12CCc3sc(Nc4ccc(O)cc4)nc3C1=CC[C@@H]1[C@@H]2CC[C@]2(C)C(=O)CC[C@@H]12', 'MDA-MB-435 melanoma', 'growth', 35.3),
  ('Cc1cc(Br)c([N+](=O)[O-])cc1[N+](=O)[O-]', 'MDA-MB-435 melanoma', 'growth', 96.3),
  ('CC12CCC3C4CCC(=O)C=C4CCC3C1CC1CC(=O)OC12 (stereo unspecified)', 'MDA-MB-435 melanoma', 'growth', 112);

Item: COc1ccc(CN)cc1OC | System: MDA-MB-435 melanoma | growth: 109

Entry CC12CCC3C(CCC4CC(O)CCC43C)C1CCC2=O (stereo unspecified) ; assay system MDA-MB-435 melanoma; growth recorded at 97.7

The compound CCOC(=O)c1cncn1C(C)c1ccccc1 (stereo unspecified) on MDA-MB-435 melanoma: growth was 108

growth for MDA-MB-435 melanoma with input CCC(=O)C(CC(C)N1CCCCCC1)(c1ccccc1)c1ccccc1 (stereo unspecified) equals 98.3

====

tested on: SR leukemia; assay: NCI-60 one-dose screen, 48 h (100 = growth as untreated, 0 = no growth, -100 = all killed); settings: 10 µM unless noted
The panel holds about 83,000 compounds, 20% with a hit somewhere; the sample as a whole holds those more often. Calls of active or inactive are those of the source. The calls were made as follows: active = growth percent below 10; inactive = the rest.
Below, each entry is listed alongside its reported growth.

INSERT INTO assay_data (compound, measurement) VALUES
  ('CC1=CC(=Nc2ccc(N(CCCl)CCCl)cc2)C=C(C)C1=O', '-2.28% (active)'),
  ('C=CCOC(=O)C(Br)CC (stereo not drawn)', '100% (inactive)'),
  ('CCCC[C@H]1C(=O)O[C@H](C)[C@H](NC(=O)c2cccc(NC=O)c2O)C(=O)O[C@@H](C)[C@@H]1OC(=O)CC(C)C', '49.4% (inactive)');

The compound COc1ccc(O)c2c(=O)c3c(OC)cc4c(c3oc12)[C@@H]1C=CO[C@@H]1O4 showed growth equal to -6.56% (active)

Reported growth ( CC[PH+](CC)CC.O=COC1OC([S-])C(OC=O)C(OC=O)C1OC=O.[Au+] (stereo not drawn) ) = -18.4% (active)

====

system: OVCAR-5 ovarian; assay: NCI-60 one-dose screen, 48 h (100 = growth as untreated, 0 = no growth, -100 = all killed); conditions: 10 µM unless noted
About 83,000 compounds went through this panel and 20% of them were active in at least one assay; those are over-represented in the sample as a whole.
Param label: returns YES when growth < 90%, returns NO otherwise, including exact equality.

Known results for molecules:
INSERT INTO assay_data (molecule, qualitative_label) VALUES
  ('CC(=O)Nc1nc2c(s1)C1=CC[C@H]3[C@@H]4CC[C@H](OC(C)=O)[C@@]4(C)CC[C@@H]3[C@@]1(C)CC2', 'NO'),
  ('COc1c(O)cc2c(c1OC)-c1ccc(SC)c(=O)cc1C(NC(C)=O)CC2 (configuration not stated)', 'YES'),
  ('COc1ccc(C(C#N)C(C)=O)cc1 (configuration not stated)', 'NO'),
  ('N#CCC(=O)c1ccccc1', 'NO');

We next turn to a different molecule, shown below.
Problem: For the molecule CNC(=O)CCl , is growth under 90%?
NO
